- ASSAY_INFO: Half life in Swiss mouse blood at 1 ug/ml by UPLC-MS analysis
- Format: ADME, tissue-based
- MEASUREMENT_CONTEXT: whole blood
REPORTED_PROPERTY: half-life at 1 ug/ml (h)
Lab book: enter the figure in h, no units written.

Here's what some known entries look like.
COC1=CC(=O)N(C(=O)/C=C/[C@H](C)NC(=O)[C@H](CC(C)C)NC(=O)[C@H](CCc2ccccc2)NC(=O)[C@H](C(C)C)N(C)C)[C@H]1Cc1c[nH]c2ccccc12.O=C(O)C(F)(F)F 1.83
COC1=CC(=O)N(C(=O)/C=C/[C@H](C)NC(=O)[C@H](CC(C)C)NC(=O)[C@H](CC2CCCCC2)NC(=O)C2CCN(C)CC2)[C@H]1Cc1c[nH]c2ccccc12.O=C(O)C(F)(F)F 0.683

Reported half-life at 1 ug/ml ( `COC1=CC(=O)N(C(=O)/C=C/[C@H](CCc2ccccc2)NC(=O)[C@H](CC(C)C)NC(=O)[C@H](CC(C)C)NC(=O)[C@H](C(C)C)N(C)C)[C@H]1Cc1c[nH]c2ccccc12.O=C(O)C(F)(F)F` ) = 4.55

###

- ASSAY_INFO: Half life in Swiss mouse plasma at 1 ug/ml by UPLC-MS analysis
- Type: ADME, cell-free
Each item that follows carries a reported half-life at 1 ug/ml.

COC1=CC(=O)N(C(=O)/C=C/[C@H](C)NC(=O)[C@H](CC(C)C)NC(=O)[C@H](CCc2ccccc2)NC(=O)[C@H](C(C)C)N(C)C)[C@H]1Cc1c[nH]c2ccccc12.O=C(O)C(F)(F)F 9.28 h
COC1=CC(=O)N(C(=O)/C=C/[C@H](C)NC(=O)[C@H](CC(C)C)NC(=O)[C@H](CC(C)C)NC(=O)C2CCN(C)CC2)[C@H]1Cc1c[nH]c2ccccc12.O=C(O)C(F)(F)F 1.37 h

Recorded result, `COC1=CC(=O)N(C(=O)/C=C/[C@@H](NC(=O)[C@H](CC(C)C)NC(=O)[C@H](CC(C)C)NC(=O)[C@H](C(C)C)N(C)C)C2CCCCC2)[C@H]1Cc1c[nH]c2ccccc12.O=C(O)C(F)(F)F` , half-life at 1 ug/ml: > 10 h

The compound listed as `COC1=CC(=O)N(C(=O)/C=C/[C@H](C)NC(=O)[C@H](CC(C)C)NC(=O)[C@H](CC(C)C)NC(=O)[C@H](C(C)C)N(C)C)[C@H]1Cc1c[nH]c2ccccc12.O=C(O)C(F)(F)F` has a reported half-life at 1 ug/ml of < 0.0333 h

Short answer for `COC1=CC(=O)N(C(=O)/C=C/[C@H](CCc2ccccc2)NC(=O)[C@H](CC(C)C)NC(=O)[C@H](CC(C)C)NC(=O)[C@H](C(C)C)N(C)C)[C@H]1Cc1c[nH]c2ccccc12.O=C(O)C(F)(F)F` : half-life at 1 ug/ml was 6.22 h

Summary for this compound, `COC1=CC(=O)N(C(=O)/C=C/[C@H](C)NC(=O)[C@H](CC(C)C)NC(=O)[C@H](CC2CCCCC2)NC(=O)C2CCN(C)CC2)[C@H]1Cc1c[nH]c2ccccc12.O=C(O)C(F)(F)F` : half-life at 1 ug/ml is 2.1 h

###

- TESTED_TARGET: UniProt Q9N6S8
REPORTED_PROPERTY: log10 of IC50 (log10 of the value in nM)
Values below are the log10 of the recorded IC50, with nM as the unit.

COC1=CC(=O)N(C(=O)/C=C/[C@H](C)NC(=O)[C@H](CCc2ccccc2)NC(=O)[C@H](CC(C)C)NC(=O)[C@H](C(C)C)N(C)C)[C@H]1Cc1c[nH]c2ccccc12 3.49
COC1=CC(=O)N(C(=O)/C=C/[C@H](C)NC(=O)[C@H](CC(C)C)NC(=O)[C@H](CC(C)C)NC(=O)C2CCN(C)CC2)[C@H]1Cc1c[nH]c2ccccc12.O=C(O)C(F)(F)F 1.46
COC1=CC(=O)N(C(=O)/C=C/[C@H](CC2CCCCC2)NC(=O)[C@H](CC(C)C)NC(=O)[C@H](CC(C)C)NC(=O)[C@H](C(C)C)N(C)C)[C@H]1Cc1c[nH]c2ccccc12 2.43
COC1=CC(=O)N(C(=O)/C=C/[C@H](CCc2ccccc2)NC(=O)[C@H](CC(C)C)NC(=O)[C@H](CC(C)C)NC(=O)[C@H](C(C)C)N(C)C)[C@H]1Cc1c[nH]c2ccccc12.O=C(O)C(F)(F)F 1.52
COC1=CC(=O)N(C(=O)/C=C/[C@H](C)NC(=O)[C@H](CC2CCCCC2)NC(=O)[C@H](CC2CCCCC2)NC(=O)[C@H](C(C)C)N(C)C)[C@H]1Cc1c[nH]c2ccccc12 2.67

log10 of IC50 for UniProt Q9N6S8 with input `COC1=CC(=O)N(C(=O)/C=C/[C@H](C)NC(=O)[C@H](CC(C)C)NC(=O)[C@H](CC2CCCCC2)NC(=O)[C@H](C(C)C)N(C)C)[C@H]1Cc1c[nH]c2ccccc12` equals 1.77

###

- ASSAY_INFO: Half life in Swiss mouse blood at 1 ug/ml by UPLC-MS analysis
- Type: ADME, tissue-based
- MEASUREMENT_CONTEXT: whole blood
# maps each entry to its half-life at 1 ug/ml

COC1=CC(=O)N(C(=O)/C=C/[C@@H](NC(=O)[C@H](CC(C)C)NC(=O)[C@H](CC(C)C)NC(=O)[C@H](C(C)C)N(C)C)C2CCCCC2)[C@H]1Cc1c[nH]c2ccccc12.O=C(O)C(F)(F)F > 600 min
COC1=CC(=O)N(C(=O)/C=C/[C@H](C)NC(=O)[C@H](CC(C)C)NC(=O)[C@H](CC(C)C)NC(=O)C2CCN(C)CC2)[C@H]1Cc1c[nH]c2ccccc12.O=C(O)C(F)(F)F 17 min

Sample `COC1=CC(=O)N(C(=O)/C=C/[C@H](C)NC(=O)[C@H](CC(C)C)NC(=O)[C@H](CC(C)C)NC(=O)[C@H](C(C)C)N(C)C)[C@H]1Cc1c[nH]c2ccccc12.O=C(O)C(F)(F)F` ; half-life at 1 ug/ml observed: < 2 min

###

- TESTED_TARGET: Cysteine protease falcipain-3 (Plasmodium falciparum, UniProt Q9NAW4)
- Sequence (Q9NAW4 whole entry): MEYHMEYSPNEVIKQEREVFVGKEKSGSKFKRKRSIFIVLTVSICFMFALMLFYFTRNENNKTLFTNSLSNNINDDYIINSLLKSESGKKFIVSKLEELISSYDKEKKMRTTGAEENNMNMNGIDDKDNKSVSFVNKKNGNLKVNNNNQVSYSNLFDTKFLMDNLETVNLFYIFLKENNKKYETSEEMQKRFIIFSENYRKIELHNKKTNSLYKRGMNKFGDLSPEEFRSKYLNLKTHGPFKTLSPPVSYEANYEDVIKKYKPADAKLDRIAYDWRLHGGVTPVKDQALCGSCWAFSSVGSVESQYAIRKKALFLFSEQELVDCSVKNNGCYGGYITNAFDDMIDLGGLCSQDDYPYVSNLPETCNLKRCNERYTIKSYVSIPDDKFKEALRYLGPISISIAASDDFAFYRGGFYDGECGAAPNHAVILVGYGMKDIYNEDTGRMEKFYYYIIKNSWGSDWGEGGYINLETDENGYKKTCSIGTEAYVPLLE
REPORTED_PROPERTY: IC50

Worked examples follow.
COC1=CC(=O)N(C(=O)/C=C/C(C)(C)NC(=O)[C@H](CC(C)C)NC(=O)[C@H](CC(C)C)NC(=O)[C@H](C(C)C)N(C)C)[C@H]1Cc1c[nH]c2ccccc12 > 50000 nM
COC1=CC(=O)N(C(=O)/C=C/[C@H](C)NC(=O)[C@H](CC(C)C)NC(=O)[C@H](CC2CCCCC2)NC(=O)C2CCN(C)CC2)[C@H]1Cc1c[nH]c2ccccc12.O=C(O)C(F)(F)F 117 nM

IC50 in this record for `COC1=CC(=O)N(C(=O)/C=C/[C@H](C)NC(=O)[C@H](CC2CCCCC2)NC(=O)[C@H](CC(C)C)NC(=O)[C@H](C(C)C)N(C)C)[C@H]1Cc1c[nH]c2ccccc12` : 407 nM

Consider `COC1=CC(=O)N(C(=O)/C=C/[C@H](C)NC(=O)[C@H](CCc2ccccc2)NC(=O)[C@H](CC(C)C)NC(=O)[C@H](C(C)C)N(C)C)[C@H]1Cc1c[nH]c2ccccc12` . Its measured IC50 is 10200 nM

compound `COC1=CC(=O)N(C(=O)/C=C/[C@H](C)NC(=O)[C@H](CC(C)C)NC(=O)[C@H](CC2CCCCC2)NC(=O)[C@H](C(C)C)N(C)C)[C@H]1Cc1c[nH]c2ccccc12` , IC50 observed: 131 nM

###

IC50 values by entry
- TESTED_TARGET: Falcipain 2 (Plasmodium falciparum)
- Sequence (Q9N6S8 whole entry): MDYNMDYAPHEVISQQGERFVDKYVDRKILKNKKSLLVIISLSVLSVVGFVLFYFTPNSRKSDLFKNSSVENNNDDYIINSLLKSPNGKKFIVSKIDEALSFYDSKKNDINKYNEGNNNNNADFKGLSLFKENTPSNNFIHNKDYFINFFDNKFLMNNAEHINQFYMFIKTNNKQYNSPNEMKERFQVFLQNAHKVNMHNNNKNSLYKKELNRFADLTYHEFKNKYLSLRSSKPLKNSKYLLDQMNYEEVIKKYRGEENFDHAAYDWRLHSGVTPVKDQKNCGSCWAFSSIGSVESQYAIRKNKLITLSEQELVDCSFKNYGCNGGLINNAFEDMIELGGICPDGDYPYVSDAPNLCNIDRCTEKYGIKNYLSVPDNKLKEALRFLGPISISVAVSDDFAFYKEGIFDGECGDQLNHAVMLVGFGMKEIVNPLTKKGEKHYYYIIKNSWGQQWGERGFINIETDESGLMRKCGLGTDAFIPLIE
State just the number; it will be interpreted in nM.

Notebook: `COC1=CC(=O)N(C(=O)/C=C/[C@H](C)NC(=O)[C@H](CC(C)C)NC(=O)[C@H](CCc2ccccc2)NC(=O)[C@H](C(C)C)N(C)C)[C@H]1Cc1c[nH]c2ccccc12.O=C(O)C(F)(F)F` , IC50 read as 57

Reported IC50 ( `COC1=CC(=O)N(C(=O)/C=C/[C@H](C)NC(=O)[C@H](CC2CCCCC2)NC(=O)[C@H](CC(C)C)NC(=O)[C@H](C(C)C)N(C)C)[C@H]1Cc1c[nH]c2ccccc12` ) = 235

Entry `COC1=CC(=O)N(C(=O)/C=C/[C@@H](NC(=O)[C@H](CC(C)C)NC(=O)[C@H](CC2CCCCC2)NC(=O)[C@H](C(C)C)N(C)C)C2CCCCC2)[C@H]1Cc1c[nH]c2ccccc12` — recorded IC50 = 169

So for `COC1=CC(=O)N(C(=O)/C=C/[C@H](C)NC(=O)[C@H](CC2CCCCC2)NC(=O)[C@H](CC2CCCCC2)NC(=O)C2CCN(C)CC2)[C@H]1Cc1c[nH]c2ccccc12` , the logged IC50 turned out to be 455

IC50 measured on `COC1=CC(=O)N(C(=O)/C=C/[C@@H](NC(=O)[C@H](CC(C)C)NC(=O)[C@H](CC(C)C)NC(=O)[C@H](C(C)C)N(C)C)C2CCCCC2)[C@H]1Cc1c[nH]c2ccccc12.O=C(O)C(F)(F)F` = 84

The measured IC50 associated with `COC1=CC(=O)N(C(=O)/C=C/[C@H](C)NC(=O)[C@H](CC(C)C)NC(=O)[C@H](Cc2ccccc2)NC(=O)[C@H](C(C)C)N(C)C)[C@H]1Cc1c[nH]c2ccccc12` reads 60
